B1: LINE1-full (parent)
chain: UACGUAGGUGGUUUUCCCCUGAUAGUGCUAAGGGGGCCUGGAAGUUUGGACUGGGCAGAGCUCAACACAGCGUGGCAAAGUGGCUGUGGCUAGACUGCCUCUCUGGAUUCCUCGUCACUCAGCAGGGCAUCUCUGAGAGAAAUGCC

- Variants of: B1
- experiment: self-cleavage, relative activity (ratio to wild type); higher = more cleavage; in vitro, sequencing; the parent is a self-cleaving ribozyme
Output Yes for self-cleavage not less than 1; output No otherwise.

Answer whether self-cleavage of UACGUAGUUGGUUUUCCCCUGAUAGUGCUAAGGGGGCCUGGAAGUUUGGACUGGGCAGAGCUCAACACAGCGUGGCAAAGUGGCUGUGGCUAGACUGCCUCUCUGGAUUCCUCGUCACUCAGCAGGGCACCUCUGAGAGAAAUGCC [G8U U130C] is greater than or equal to 1.
Yes

Input UACGUAGGUGGUUUUCCCCUGAUAGUGCUAAGGGGGCCUGUAAGUUUGGACUGGGCAGAGCUCAACACAGCGUGGCAAAGUGGCUGUGGCUAGACUGCCGCUCUGGAUUCCUCGUCACUCAGCAGGGCAUCUCUGAGAGAAAUGCC [G41U U100G]
No

Could you do the same for UACAUAGGUGGUUUUCCCCUGAUAGUGCUAAGGGGGCCUGGAAGUUUGGACUGGGCAGAGCUCAACACAGCGUGGCAAAGUGGCUGUGGCUAGACUGCCUCUCUGGAUUCCUCGUAACUCAGCAGGGCAUCUCUGAGAGAAAUGCC [G4A C116A] , please?
Yes

Same lookup for UACGUAGGUGGUUUUCCCCUGAUAGUGCUAAGGGGGCCUGGAGGUUUGGACUGGGCAGAGCUCAACACAGCGUGGCAAAGUGGCUGUGGCUAGACUGCCUCUCUUGAUUCCUCGUCACUCAGCAGGGCAUCUCUGAGAGAAAUGCC [A43G G105U] , please.
Yes

Next variant: UACGUAGGUGGUUUUCCCCUGAUAGUGCUAAGGGGGCCUGGAAGUUCGGACUGGGCAGAGCUCAACACAGCAUGGCAAAGUGGCUGUGGCUAGACUGCCUCUCUGGAUUCCUCGUCACUCAGCAGGGCAUCUCUGAGAGAAAUGCC [U47C G72A]
No

UACGUAGGUGGUUCUCCCCUGAUAGUGCUAAGGGGUCCUGGAAGUUUGGACUGGGCAGAGCUCAACACAGCGUGGCAAAGUGGCUGUGGCUAGACUGCCUCUCUGGAUUCCUCGUCACUCAGCAGGGCAUCUCUGAGAGAAAUGCC [U14C G36U] ?
Yes

# repeat for UACGUAGGUGGUUUUCCCCUGAUAGUGCUAAGGGGGCCUGGAAGUUUGGACUGGGCAGAGCUCAACACGGCGUGGCAAAGUGGCUGUGGCUAGACUGCCUCUCUGGAUUCCUCGUCACUCAGCAGGGCAUCUCUGGGAGAAAUGCC [A69G A136G]
No

Ok, now UACGUAGGUGGUUUUCCCCUGAUAGUGCUAAGGGGGCCUGGAAGUUUGGUCUGGGCAGAGCUCAACACAGCGUGGCAAAGUGGCUGUGGCUAGACUGCCUCUCUGGAUUCCUCGUCACUCAGCAGGGCAUCUCUGAGAGAAAUACC [A50U G144A]
Yes

Again, but for UACGUAGGUGGUUUUCCCGUGAUAGUGCUAAGGGGGCCUGGAAGUUUGGACUGGGCAGAGCUCAACACAGCGUGGCAAAGUGGCUGUGGCUAGACUGCCUCUCUGGAUUCCUCGUCUCUCAGCAGGGCAUCUCUGAGAGAAAUGCC [C19G A117U]
Yes

// same read-out, input: UACGUAGGUGGUUUUCCCCUGAUAGUGCUAAGGGGGCCUGGAAGUUUGGACUGGGCAGAGCUCAACACAGCGUGGCAAAGUGGCUGUGGCUAGACUGCCACUCUGGAUUCCUCGUCACUCAGCAGGGCAUCUCUGAGAGAAAAGCC [U100A U143A]
No

Now consider UACGUAGGUGAUUUUCCCCUGAUAGUGCUAAGGGGGCCUGGAAGUUUGGACUGGGCAGAGCUCAACACAGCGUGGCUAAGUGGCUGUGGCUAGACUGCCUCUCUGGAUUCCUCGUCACUCAGCAGGGCAUCUCUGAGAGAAAUGCC [G11A A77U] and answer again.
Yes

Record: UACGUAGGUGGUUUUCCCCUGAUAGUGCUAAGGGGGCCUGGAAGUUUGGACUGGGCAGAGCUCAGCACAGCGUGGCAAGGUGGCUGUGGCUAGACUGCCUCUCUGGAUUCCUCGUCACUCAGCAGGGCAUCUCUGAGAGAAAUGCC [A65G A79G]
No

Entry UACGUAGGUGGUUUUCCCCUGAUAGUGCUAAGGGGGCCUGGAAGUUUGAACUGGGCAGAGCUCAACACAGCGUGGCAAAGUGGCUGUGGCUAGACCGCCUCUCUGGAUUCCUCGUCACUCAGCAGGGCAUCUCUGAGAGAAAUGCC [G49A U96C] please
No

Request: UACGCAGGUGGUUUUCCCCUGAUAGUGCUAAGGGGGCCUGGAAGUUUGGACUGGGCAGAGCUCAACACAGCGUGGCAAAGUGGCUGUGGCUAGACUGCCUCUCUGGAUUCCUCGUCGCUCAGCAGGGCAUCUCUGAGAGAAAUGCC [U5C A117G]
No

Then UACGUAGGUGGUUUUCCCCUGAUAGUGCUAAGGGGGCCUGGAAGUUUGGACUGGGCAGAGCUCAACACAGCGUGGCAAAGUGGCUGUGGCUAGACUGCCUCUCUGGAUCCCUCGUCACUCAGCGGGGCAUCUCUGAGAGAAAUGCC [U109C A124G] ?
No

Then this variant: UACGUAGGAGGUUUUCCCCUGAUAGUGCUAAGGGGGCCUGGAAGUUUGGACUGGGCAGAGCUCAACACAGCGUGGCAAAGUGGCUGUGGCUAGACUGCCUCUCUGGAUUCCUCGUCACUCAGCAGGGCAUCUCUGAGAGAAAAGCC [U9A U143A]
Yes

Now consider UACGUAGGUGGUUUUCCCCUGAUAGUGCUAAGGGGGCCUGGAAGUUUGGACUGGGCAGAGCUCAACACAGCGUGGCAAAGUGGCUGUGGCUAGACUGCCUCUCUUGAUUCCUCGUCACCCAGCAGGGCAUCUCUGAGAGAAAUGCC [G105U U119C] .
Yes

Query UACGUAGGUGGUUUUCCCCUGAUAGUGCUAAGGGGGCCUGGAAGUUUGGACUGGGCAGAGCUCAGCACAGCGUGGCAAAGUGGCCGUGGCUAGACUGCCUCUCUGGAUUCCUCGUCACUCAGCAGGGCAUCUCUGAGAGAAAUGCC [A65G U85C] next
No

For UACGUAGGUGGUUUUCCCCUGAUAGUGCUAAGGGGGCCUGGAAGUUUGGACUGGGCAGAGCACAACACAGCGUGGCAAAGUGGCUGUGGCUAGACUGCCUCUCUGGAUUCCUCGUCACUCAGCAGGGCAUCUUUGAGAGAAAUGCC [U62A C133U] then?
No

Could you do the same for UACGUAGGUGGUUUACCCCUGAUAGUGCUAAGGGGGCCUGGAAGUUUGGACUUGGCAGAGCUCAACACAGCGUGGCAAAGUGGCUGUGGCUAGACUGCCUCUCUGGAUUCCUCGUCACUCAGCAGGGCAUCUCUGAGAGAAAUGCC [U15A G53U] , please?
No

Follow-up entry: UACGUAGGUGGUUUUCCCCUGAUAGUGCUAAGGGGGCCUGGAAGUUUGGACUGGGCAGAGCUCAACACGGCGUGGCAAAGUGGCUGUGGCUAGACUGCCUCUCUGGAUUCCUCGUCACUCAGCAGGGCAUCUCUGAGAGGAAUGCC [A69G A140G]
No

Subsequent entry: UACGUAGGUGGUUUUCCCCUGAUAGUGCUAAGGGGGGCUGGAAGUUUGGACUGGGCUGAGCUCAACACAGCGUGGCAAAGUGGCUGUGGCUAGACUGCCUCUCUGGAUUCCUCGUCACUCAGCAGGGCAUCUCUGAGAGAAAUGCC [C37G A57U]
No
